# reported protein stability index; entries follow
B1: CLINT1 (parent)
chain: VVTSAREHIYDLRSLENYHFVDEH

# Variants of: B1
# ASSAY PROCEDURE: protein stability index of a GFP-peptide fusion (GPS, HEK-293T) (PSI 1-6); higher = more stable;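 further: lentivirally expressed fusions sorted by FACS into six bins by GFP to DsRed ratio, PSI derived from sequencing read proportions per bin multiplied by bin number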
# CONDITION CONTEXT: c terminus: a fixed tail appended
The reply should be a number, written without any unit.

Sample records with protein stability index:
[
  {
    "MUTANT LABEL": "D11H",
    "protein stability index": 2.3
  },
  {
    "MUTANT LABEL": "Y10D",
    "protein stability index": 3.94
  },
  {
    "MUTANT LABEL": "A5R",
    "protein stability index": 2.67
  },
  {
    "MUTANT LABEL": "V1F",
    "protein stability index": 1.79
  },
  {
    "MUTANT LABEL": "E23Q",
    "protein stability index": 2.55
  },
  {
    "MUTANT LABEL": "A5H",
    "protein stability index": 2.83
  },
  {
    "MUTANT LABEL": "E7Q",
    "protein stability index": 1.85
  },
  {
    "MUTANT LABEL": "F20W",
    "protein stability index": 2.58
  },
  {
    "MUTANT LABEL": "H19T",
    "protein stability index": 3.28
  },
  {
    "MUTANT LABEL": "H19N",
    "protein stability index": 3.09
  }
]

In: State, in one line, measured protein stability index of `H24A`
Out: 2.85

In: State, in one line, measured protein stability index of `Y18E`
Out: 4.26

In: State, in one line, measured protein stability index of `V2L`
Out: 3.23

In: State, in one line, measured protein stability index of `F20E`
Out: 3.97

In: State, in one line, measured protein stability index of `L15I`
Out: 2.99

In: State, in one line, measured protein stability index of `A5Q`
Out: 3.71

In: State, in one line, measured protein stability index of `R6K`
Out: 3.48

In: State, in one line, measured protein stability index of `R6G`
Out: 3.04

In: State, in one line, measured protein stability index of `E16N`
Out: 2.62

In: State, in one line, measured protein stability index of `V1T`
Out: 3.63

In: State, in one line, measured protein stability index of `H19V`
Out: 2.11

In: State, in one line, measured protein stability index of `E16H`
Out: 2.26

In: State, in one line, measured protein stability index of `H24G`
Out: 3.55

In: State, in one line, measured protein stability index of `L15R`
Out: 3.53

In: State, in one line, measured protein stability index of `A5L`
Out: 1.97
